The reader will find reported MCH values listed item by item below.
- Species: Rattus norvegicus
- assay procedure: Open TG-GATES - Regimen: Single
- Format: toxicity, organism-based, Sprague-Dawley
- Parameters: regimen Single, gender Male, age 6 weeks
- experimental setup: in vivo, po, 0 mg/kg, 24 h, tissue Blood, route gavage, dose level Control

# compound, MCH (pg)
records = [
    ("COC(=O)C1=C(C)NC(C)=C(C(=O)OC)C1c1ccccc1[N+](=O)[O-]", 21.2),
    ("O=C(OC[C@H]1O[C@@H](OC(=O)c2cc(O)c(O)c(OC(=O)c3cc(O)c(O)c(O)c3)c2)[C@H](OC(=O)c2cc(O)c(O)c(OC(=O)c3cc(O)c(O)c(O)c3)c2)[C@@H](OC(=O)c2cc(O)c(O)c(OC(=O)c3cc(O)c(O)c(O)c3)c2)[C@@H]1OC(=O)c1cc(O)c(O)c(OC(=O)c2cc(O)c(O)c(O)c2)c1)c1cc(O)c(O)c(OC(=O)c2cc(O)c(O)c(O)c2)c1", 22),
    ("CCCc1cc(=O)[nH]c(=S)[nH]1", 21.6),
    ("CCOc1ccc(NC(C)=O)cc1", 21.1),
    ("Cc1nnc2n1-c1ccc(Cl)cc1C(c1ccccc1Cl)=NC2", 21.1),
    ("NC1=NC(=O)C(c2ccccc2)O1 (stereo not drawn)", 21.8),
    ("CN/C(=N/CCSCc1nc[nH]c1C)NC#N", 21.6),
    ("CN1C(=O)CCS(=O)(=O)C1c1ccc(Cl)cc1 (stereo not drawn)", 21.6),
    ("Brc1ccccc1", 21.1),
    ("CC(C)NNC(=O)c1ccncc1", 21.4),
    ("Nc1c2c(nc3ccccc13)CCCC2", 21.5),
    ("CNC(=C[N+](=O)[O-])NCCSCc1ccc(CN(C)C)o1", 22.5),
    ("CN(C)CCC(c1ccc(Cl)cc1)c1ccccn1 (stereo not drawn)", 21.2),
]

###

- Species on record: Rattus norvegicus
- assay procedure: Open TG-GATES - Regimen: Daily Repeat
- Format: toxicity, organism-based, Sprague-Dawley
- Set-up: regimen Daily Repeat, gender Male, age 6 weeks
- experimental setup: in vivo, po, 100 mg/kg, […], tissue Plasma, route gavage, dose level Low, time 7 day

# smiles structure, scale unit, BUN
rows = [
    ("CNC(=C[N+](=O)[O-])NCCSCc1ccc(CN(C)C)o1", "mg/dL", 17.8),
    ("Cc1nnc2n1-c1ccc(Cl)cc1C(c1ccccc1Cl)=NC2", "mg/dL", 16.6),
    ("O=C(OC[C@H]1O[C@@H](OC(=O)c2cc(O)c(O)c(OC(=O)c3cc(O)c(O)c(O)c3)c2)[C@H](OC(=O)c2cc(O)c(O)c(OC(=O)c3cc(O)c(O)c(O)c3)c2)[C@@H](OC(=O)c2cc(O)c(O)c(OC(=O)c3cc(O)c(O)c(O)c3)c2)[C@@H]1OC(=O)c1cc(O)c(O)c(OC(=O)c2cc(O)c(O)c(O)c2)c1)c1cc(O)c(O)c(OC(=O)c2cc(O)c(O)c(O)c2)c1", "mg/dL", 18.4),
    ("CCOc1ccc(NC(C)=O)cc1", "mg/dL", 15.4),
    ("CN/C(=N/CCSCc1nc[nH]c1C)NC#N", "mg/dL", 16.6),
    ("COC(=O)C1=C(C)NC(C)=C(C(=O)OC)C1c1ccccc1[N+](=O)[O-]", "mg/dL", 17.4),
]

###

- Species: Rattus norvegicus
- assay procedure: Open TG-GATES - Regimen: Single
- Type: toxicity, organism-based, Sprague-Dawley
- Design: regimen Single, gender Male, age 6 weeks
- experimental setup: in vivo, po, 100 mg/kg, 9 h, tissue Blood, route gavage, dose level Low
// label = Satisfied if Neu is not less than 20%, otherwise Not satisfied

# smiles structure, discrete label
measured = [
    ("CN/C(=N/CCSCc1nc[nH]c1C)NC#N", "Satisfied"),
    ("Cc1nnc2n1-c1ccc(Cl)cc1C(c1ccccc1Cl)=NC2", "Satisfied"),
    ("CNC(=C[N+](=O)[O-])NCCSCc1ccc(CN(C)C)o1", "Satisfied"),
    ("COC(=O)C1=C(C)NC(C)=C(C(=O)OC)C1c1ccccc1[N+](=O)[O-]", "Not satisfied"),
    ("O=C(OC[C@H]1O[C@@H](OC(=O)c2cc(O)c(O)c(OC(=O)c3cc(O)c(O)c(O)c3)c2)[C@H](OC(=O)c2cc(O)c(O)c(OC(=O)c3cc(O)c(O)c(O)c3)c2)[C@@H](OC(=O)c2cc(O)c(O)c(OC(=O)c3cc(O)c(O)c(O)c3)c2)[C@@H]1OC(=O)c1cc(O)c(O)c(OC(=O)c2cc(O)c(O)c(O)c2)c1)c1cc(O)c(O)c(OC(=O)c2cc(O)c(O)c(O)c2)c1", "Not satisfied"),
]

###

- Species: Rattus norvegicus
- assay procedure: Open TG-GATES - Regimen: Daily Repeat
- Type: toxicity, organism-based, Sprague-Dawley
- Parameters: regimen Daily Repeat, gender Male, age 6 weeks
- experimental setup: in vivo, po, 300 mg/kg, […], tissue Plasma, route gavage, dose level Middle, time 7 day
The reader will find reported Na values listed item by item below.

# smiles structure, Na, meq/L
measured = [
    ("Cc1nnc2n1-c1ccc(Cl)cc1C(c1ccccc1Cl)=NC2", 141.4),
    ("CNC(=C[N+](=O)[O-])NCCSCc1ccc(CN(C)C)o1", 141),
    ("CN/C(=N/CCSCc1nc[nH]c1C)NC#N", 141.4),
    ("COC(=O)C1=C(C)NC(C)=C(C(=O)OC)C1c1ccccc1[N+](=O)[O-]", 145.6),
    ("O=C(OC[C@H]1O[C@@H](OC(=O)c2cc(O)c(O)c(OC(=O)c3cc(O)c(O)c(O)c3)c2)[C@H](OC(=O)c2cc(O)c(O)c(OC(=O)c3cc(O)c(O)c(O)c3)c2)[C@@H](OC(=O)c2cc(O)c(O)c(OC(=O)c3cc(O)c(O)c(O)c3)c2)[C@@H]1OC(=O)c1cc(O)c(O)c(OC(=O)c2cc(O)c(O)c(O)c2)c1)c1cc(O)c(O)c(OC(=O)c2cc(O)c(O)c(O)c2)c1", 137.4),
]

###

- Organism: Rattus norvegicus
- assay procedure: Open TG-GATES - Regimen: Single
- Format: toxicity, organism-based, Sprague-Dawley
- Parameters: regimen Single, gender Male, age 6 weeks
- experimental setup: in vivo, po, 0 mg/kg, 3 h, tissue Plasma, route gavage, dose level Control
The reader will find reported AST values listed item by item below.

# compound, AST (IU/L)
rows = [
    ("CC(C)NNC(=O)c1ccncc1", 78.6),
    ("CCCc1cc(=O)[nH]c(=S)[nH]1", 69.8),
    ("O=C(OC[C@H]1O[C@@H](OC(=O)c2cc(O)c(O)c(OC(=O)c3cc(O)c(O)c(O)c3)c2)[C@H](OC(=O)c2cc(O)c(O)c(OC(=O)c3cc(O)c(O)c(O)c3)c2)[C@@H](OC(=O)c2cc(O)c(O)c(OC(=O)c3cc(O)c(O)c(O)c3)c2)[C@@H]1OC(=O)c1cc(O)c(O)c(OC(=O)c2cc(O)c(O)c(O)c2)c1)c1cc(O)c(O)c(OC(=O)c2cc(O)c(O)c(O)c2)c1", 68),
    ("Nc1c2c(nc3ccccc13)CCCC2", 77.8),
    ("CNC(=C[N+](=O)[O-])NCCSCc1ccc(CN(C)C)o1", 70.2),
    ("CN(C)CCC(c1ccc(Cl)cc1)c1ccccn1 (centres undefined)", 73.6),
    ("COC(=O)C1=C(C)NC(C)=C(C(=O)OC)C1c1ccccc1[N+](=O)[O-]", 81.8),
    ("CN/C(=N/CCSCc1nc[nH]c1C)NC#N", 71.2),
    ("CCOc1ccc(NC(C)=O)cc1", 74.4),
    ("NC1=NC(=O)C(c2ccccc2)O1 (centres undefined)", 77),
    ("CS(=O)(=O)O.Cc1ccc(NC(=O)c2ccc(CN3CCN(C)CC3)cc2)cc1Nc1nccc(-c2cccnc2)n1 [IMATINIB MESYLATE]", 82.8),
    ("Brc1ccccc1", 83.2),
    ("Cc1nnc2n1-c1ccc(Cl)cc1C(c1ccccc1Cl)=NC2", 72.4),
    ("CN1C(=O)CCS(=O)(=O)C1c1ccc(Cl)cc1 (centres undefined)", 67.4),
]

###

The reader will find reported Na values listed item by item below.
- Organism: Rattus norvegicus
- assay procedure: Open TG-GATES - Regimen: Daily Repeat
- Type: toxicity, organism-based, Sprague-Dawley
- Parameters: regimen Daily Repeat, gender Male, age 6 weeks
- experimental setup: in vivo, po, 1000 mg/kg, […], tissue Plasma, route gavage, dose level High, time 7 day
property measured: Na (meq/L)

# smiles structure, property measured, recorded value
data = [
    ("COC(=O)C1=C(C)NC(C)=C(C(=O)OC)C1c1ccccc1[N+](=O)[O-]", "Na", 144.2),
    ("CN/C(=N/CCSCc1nc[nH]c1C)NC#N", "Na", 140.4),
    ("CNC(=C[N+](=O)[O-])NCCSCc1ccc(CN(C)C)o1", "Na", 140.6),
    ("CCOc1ccc(NC(C)=O)cc1", "Na", 144),
    ("O=C(OC[C@H]1O[C@@H](OC(=O)c2cc(O)c(O)c(OC(=O)c3cc(O)c(O)c(O)c3)c2)[C@H](OC(=O)c2cc(O)c(O)c(OC(=O)c3cc(O)c(O)c(O)c3)c2)[C@@H](OC(=O)c2cc(O)c(O)c(OC(=O)c3cc(O)c(O)c(O)c3)c2)[C@@H]1OC(=O)c1cc(O)c(O)c(OC(=O)c2cc(O)c(O)c(O)c2)c1)c1cc(O)c(O)c(OC(=O)c2cc(O)c(O)c(O)c2)c1", "Na", 136.6),
    ("Cc1nnc2n1-c1ccc(Cl)cc1C(c1ccccc1Cl)=NC2", "Na", 142),
]
